pIC50: −log10 of the molar value.
Assay system Serine/threonine-protein kinase PLK1 (Homo sapiens); read-out recorded as pIC50.
Property label: pIC50

- O=C1C(C2=C3C(=Nc4ccccc43)/C(=C\c3ccc(O)cc3)C2=O)=C2C(=Nc3ccccc32)/C1=C\c1ccc(O)cc1: 5.70
- CC(Nc1ncc(C#N)c(N2CCc3ccccc3C2)n1)c1ccccc1 (centres undefined): 6.12
- CCn1c(=O)/c(=C\Nc2ccc(OCCN(C)C)cc2)s/c1=C(/C#N)C(=O)NCC(F)F: 7.13
- CCCN(CC1CC1)c1nc(NCc2ccc3c(c2)OCO3)ncc1C#N: 5.80
- FC(F)(F)c1ccc(Nc2nc(NCc3cccnc3)ncc2-c2nn[nH]n2)cc1: 6.31
- N[C@H](COc1cncc(-c2cc3ccncc3s2)c1)Cc1c[nH]c2ccccc12: 5.00
- O=c1c(O)c(-c2ccc(O)c(O)c2)oc2cc(O)cc(O)c12: 4.19
- C=CCOC(=O)/C(C#N)=C1\S[C@@H](CNc2ccc(NC(=O)NCCN3CCCC3)cc2)C(=O)N1CC: 7.64
- c1csc(CCNc2ncc(-c3nnn[nH]3)c(Nc3ccc4c(c3)OCCO4)n2)c1: 5.98

---

Assay system Serine/threonine-protein kinase PLK1 (Homo sapiens, UniProt P53350); read-out recorded as IC50.
Property label: IC50

• CCCN(CC1CC1)c1nc(NC(C)c2ccccc2)ncc1C#N (centres undefined) = 550 nM
• CCOC(=O)/C(C#N)=c1\s/c(=C/Nc2ccc(NC(=O)COC)cc2)c(=O)n1CC = 500 nM
• CN1CCN(c2ccc(C(=O)Nc3[nH]nc4c3CN(C(=O)Cc3cccs3)C4)cc2)CC1 = 530 nM
• CC(C)(C)c1ccc(Nc2nc(NCc3cccnc3)ncc2-c2nn[nH]n2)cc1 = 960 nM
